# Tested on: ncRNAs (SEQ ID NO 28-89)
# METHOD_NOTES: ncRNA arrays of melanocytes, keratinocytes, normal skin, melanoma cell lines and patient samples
# Set-up: species or system human
# MEASUREMENT_CONTEXT: melanoma patient 29 sample compared to normal skin
MEASURED_QUANTITY: ncRNA array expression, patient 29
One number for each entry.

In the examples that follow, each entry is paired with its recorded ncRNA array expression, patient 29.
{"SUBSTANCE": "SEQ ID NO 32 (ATTCAAATCTTCATGAATGGCATCACTTGCTTTAGACCCATTTTTTTTTTATTGGTCAGA; DNA, backbone and methylation of C not given here; listed as Homo sapiens)", "ncRNA array expression, patient 29": 1.473}
{"SUBSTANCE": "SEQ ID NO 59 (TGTGCAGCAGTATCAAAGGTCCTTAAATTCTCAACAATGAAGGAAAAACAAAAACCCATT; listed as DNA, chemistry not given here; listed as Homo sapiens)", "ncRNA array expression, patient 29": "−1.077"}
{"SUBSTANCE": "SEQ ID NO 37 (ACGCACTGGGCGTTGAAGCAGTGCTTTCTGGATTAAATACGAAATACTGATGTCACAAGC; DNA, backbone and methylation of C not given here; listed as Homo sapiens)", "ncRNA array expression, patient 29": 2.461}
{"SUBSTANCE": "SEQ ID NO 78 (ATGGAAAGGCCAGGGGAGGGTGGAGCTCAGGAGTGGAAGCACAGGGACTAAGGCCTGAGC; listed as DNA, chemistry not given here; listed as Homo sapiens)", "ncRNA array expression, patient 29": "−3.656"}
{"SUBSTANCE": "SEQ ID NO 43 (CTTAATCCACATTTGTTTTGAATTTTTCTGATTCCTATAGTACCATACTCTGATGCCTAT; listed as DNA, chemistry not given here; listed as Homo sapiens)", "ncRNA array expression, patient 29": "−1.366"}
{"SUBSTANCE": "SEQ ID NO 30 (ATTCCAAGGCCTATTAAAATTTCTGAGCATTGCCCATTTCTTTTGCTTTATCTGTAGGAC; DNA, backbone and methylation of C not given here; listed as Homo sapiens)", "ncRNA array expression, patient 29": 4.757}

Here are 3 substances. What values of ncRNA array expression, patient 29 were reported for them?
1. SEQ ID NO 55 (CCTCTCCCCTTCTTGCAAAAAATATTCTATATTCAAGTTTAGGAGAAAACAGAATACTTG; listed as DNA, chemistry not given here; listed as Homo sapiens)
2. SEQ ID NO 65 (CACCGTTTTACTTTTTGTGGGGAGGGGAAGCAGTATCAAAATTTCTTCGGGCGCCAGAAC; listed as DNA, chemistry not given here; listed as Homo sapiens)
3. SEQ ID NO 36 (TATTTGTGACTAACTGTATAACAGGTTATTTTAGTTTCTGTTCTGTGGGAAGTGTAAAGC; listed as DNA, chemistry not given here; listed as Homo sapiens)

A)
["−2.155", "−1.2518", 4.381]

Data origin, for the record: patent US20110143948A1
